- protocolNotes: reversal of MRP1-mediated doxorubicin resistance, pilot screen, H69AR cells, doxorubicin co-treatment (AID 601)
- conditionSummary: H69AR cells + 2 uM doxorubicin, CellTiter-Glo, 72 h; measured here: viability with 2 uM doxorubicin; at 10 µM; stronger effect = lower value
viability values for the compounds below.

compound | resultUnits | viability
CCN1CCCC1CNC(=O)CS(=O)(=O)Cc1nc(-c2ccccc2C)oc1C (configuration not stated) | % | 88.1
N#Cc1c(-c2ccccc2)nc(SCc2nc(N)nc(N3CCCCC3)n2)[nH]c1=O | % | 102
CC(O)c1n(C)c(Cl)c[n+]1C (configuration not stated) | % | 106
C=CCOc1nc2c(c(=O)n(C)c(=O)n2C)n1C | % | 82
COc1ccccc1-n1c(-c2cccnc2)n[nH]c1=S | % | 102
CCOC(=O)c1cccc(NC(=O)CS(=O)(=O)Cc2nc(-c3cccc(OC)c3)oc2C)c1 | % | 92.8
COc1cc(C)c(-c2cc(C(=O)O)c(C)o2)cc1C(C)C | % | 85
